Examples of molecules with documented pIC50 follow.
- targetOrTestSystem: Recombinant human Aurora B (amino acids 1-344) (Homo sapiens (Human))
- Sequence (Q96GD4 whole entry, the tested form may be a part): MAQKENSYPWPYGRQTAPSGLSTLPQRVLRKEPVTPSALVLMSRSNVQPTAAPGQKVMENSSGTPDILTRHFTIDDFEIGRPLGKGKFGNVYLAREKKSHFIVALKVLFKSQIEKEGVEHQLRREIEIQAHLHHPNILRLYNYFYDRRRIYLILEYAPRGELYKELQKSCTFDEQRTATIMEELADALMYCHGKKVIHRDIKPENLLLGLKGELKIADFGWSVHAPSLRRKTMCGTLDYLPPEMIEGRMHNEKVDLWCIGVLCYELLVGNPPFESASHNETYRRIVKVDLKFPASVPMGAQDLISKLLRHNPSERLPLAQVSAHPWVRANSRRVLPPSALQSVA
- experimentalProtocol: Aurora B kinase test (ADP Glo luminescence)
- Format: biochemical
- testSettings: Table 1; read-out: AURB-inhibition IC50-value
pIC50: −log10 of the molar value.
measuredProperty: pIC50

molecule	targetOrTestSystem	result
C[C@@H](Oc1cc(-c2ccc(C3CCN(C)CC3)cc2)cc2nn(C)cc12)[C@H]1CNC(=O)C1 [Example 42]	Recombinant human Aurora B (amino acids 1-344) (Homo sapiens (Human))	< 4.30
C[C@@H](Oc1nc(-c2ccc3c(cnn3C)c2)cc2nn(C)cc12)[C@H]1CNC(=O)C1 [Example 62]	Recombinant human Aurora B (amino acids 1-344) (Homo sapiens (Human))	< 4.30
C[C@@H](Oc1cc(-c2cnn(CCC(F)(F)F)c2)cc2nn(C)cc12)[C@H]1CNC(=O)C1 [Example 15]	Recombinant human Aurora B (amino acids 1-344) (Homo sapiens (Human))	4.48
C[C@@H](Oc1cc(-c2n[nH]c3ccc(C#N)cc23)cc2nn(C)cc12)[C@H]1CNC(=O)C1 [Example 16]	Recombinant human Aurora B (amino acids 1-344) (Homo sapiens (Human))	< 4.30
CC(C)n1cc(-c2cc3nn(C)cc3c(O[C@H](C)[C@H]3CNC(=O)C3)n2)cn1 [Example 65]	Recombinant human Aurora B (amino acids 1-344) (Homo sapiens (Human))	< 4.30
C[C@@H](Oc1cc(-c2ccc3c(cnn3C)c2)cc2nn(C)cc12)[C@H]1CNC(=O)C1 [Example 28]	Recombinant human Aurora B (amino acids 1-344) (Homo sapiens (Human))	< 4.30
C[C@@H](Oc1nc(-c2cnn([C@H]3CCOC3)c2)cc2nn(C)cc12)[C@H]1CNC(=O)C1 [Example 70]	Recombinant human Aurora B (amino acids 1-344) (Homo sapiens (Human))	< 4.30
COc1cc(-c2cc3nn(C)cc3c(O[C@H](C)[C@H]3CNC(=O)C3)n2)ccc1O [Example 8]	Recombinant human Aurora B (amino acids 1-344) (Homo sapiens (Human))	< 4.30
C[C@@H](Oc1cc(-c2ccc(N3CCN(C)CC3)cc2)cc2nn(C)cc12)[C@H]1CNC(=O)C1 [Example 26]	Recombinant human Aurora B (amino acids 1-344) (Homo sapiens (Human))	< 4.30
C[C@@H](Oc1nc(-c2cnn(C3CCCCC3)c2)cc2nn(C)cc12)[C@H]1CNC(=O)C1 [Example 7]	Recombinant human Aurora B (amino acids 1-344) (Homo sapiens (Human))	4.43
